Listed below: log10 Ki values for each entry.
- experimentalSystem: Bromodomain-containing protein 4 (Homo sapiens, UniProt O60885)
- testDetails: Inhibition of FAM-labeled ZBA248 binding to recombinant human N-terminal His6-tagged BRD4 bromodomain 2 (333 to 460 residues) expressed in Rosetta2 DE3 cells after 30 mins by Flourescence polarization assay
- Assay type: biochemical
Hey, these are logged values: log10 of Ki, nM being the unit before logging.

Example entries begin here.
In [3]: df
Out[3]:
                             moleculesmiles  reportedendpoint  quantitativereadout
0  COc1cc2c(cc1-c1c(C)noc1C)[nH]c1ncnc(-c3nn(C)c4ccccc34)c12          log10 Ki                 1.35
1  COc1cc2c(cc1-c1c(C)noc1C)[nH]c1ncnc(-c3c[nH]c4cnccc34)c12          log10 Ki                 0.85
2  COc1cc2c(cc1-c1c(C)noc1C)[nH]c1ncnc(-n3cnc4ccccc43)c12          log10 Ki                 0.45
3  COc1cc2c(cc1-c1c(C)noc1C)[nH]c1ncnc(-c3c(C4CC4)n[nH]c3C)c12          log10 Ki                 0.43
4  COc1cc2c(cc1-c1c(C)noc1C)[nH]c1ncnc(-c3c(C)n[nH]c3C)c12          log10 Ki                 1.31
5  COc1cc2c(cc1-c1c(C)noc1C)[nH]c1nc(C)nc(-c3cccc4ncccc34)c12          log10 Ki                 0.49
6  COc1cc2c(cc1-c1c(C)noc1C)[nH]c1nc(C)nc(-c3cnc4ccccc4c3)c12          log10 Ki                 1.63

Okay, now this molecule:
Noted for COc1cc2c(cc1-c1c(C)noc1C)[nH]c1nc(C)nc(-c3ccnc4ccccc34)c12 : its log10 Ki reads 0.15

----------
- experimentalSystem: Bromodomain-containing protein 3 (Homo sapiens)
- Sequence (Q15059 whole entry, the tested form may be a part): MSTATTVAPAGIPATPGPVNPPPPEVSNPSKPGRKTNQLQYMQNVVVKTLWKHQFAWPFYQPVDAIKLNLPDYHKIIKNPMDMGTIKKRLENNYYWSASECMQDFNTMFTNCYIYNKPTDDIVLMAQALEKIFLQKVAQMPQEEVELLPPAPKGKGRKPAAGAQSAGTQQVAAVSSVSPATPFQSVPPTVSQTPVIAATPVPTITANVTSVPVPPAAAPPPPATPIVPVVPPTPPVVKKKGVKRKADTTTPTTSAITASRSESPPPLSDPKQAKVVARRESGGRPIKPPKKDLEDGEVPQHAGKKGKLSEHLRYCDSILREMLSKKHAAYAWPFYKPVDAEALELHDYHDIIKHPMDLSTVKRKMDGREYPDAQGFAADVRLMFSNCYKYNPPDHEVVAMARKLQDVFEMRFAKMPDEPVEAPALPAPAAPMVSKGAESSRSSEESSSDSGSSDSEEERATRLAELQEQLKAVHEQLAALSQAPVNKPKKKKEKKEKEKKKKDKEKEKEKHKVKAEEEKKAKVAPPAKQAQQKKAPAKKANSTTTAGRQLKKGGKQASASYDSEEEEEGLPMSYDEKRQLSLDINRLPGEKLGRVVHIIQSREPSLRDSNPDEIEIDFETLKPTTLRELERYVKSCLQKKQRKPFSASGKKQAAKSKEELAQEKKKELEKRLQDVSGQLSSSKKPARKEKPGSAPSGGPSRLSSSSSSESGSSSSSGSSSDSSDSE
- testDetails: Binding affinity to human partial length BRD3 bromodomain 1 (P24 to E144 residues) expressed in bacterial expression system by BROMOscan assay
reportedEndpoint: pKd
Just so you know, pKd here is -log10 of the concentration in molar units; reply with that number alone.

Noted for COc1cc2c(cc1-c1c(C)noc1C)[nH]c1nc(C)nc(-c3ccnc4ccccc34)c12 : its pKd reads 8.70

----------
- experimentalSystem: Bromodomain-containing protein 4 (Homo sapiens, UniProt O60885)
- testDetails: Inhibition of FAM-labeled ZBA248 binding to recombinant human N-terminal His6-tagged BRD4 bromodomain 1 (44 to 168 residues) expressed in Rosetta2 DE3 cells after 30 mins by Flourescence polarization assay
- Format: biochemical
Listed below: pKi values for each entry.
Just so you know, pKi here is -log10 of the concentration in molar units; reply with that number alone.

Example entries begin here.
In [3]: df
Out[3]:
                             moleculesmiles  quantitativereadout
0  COc1cc2c(cc1-c1c(C)noc1C)[nH]c1nc(C)nc(-c3cccc4cnccc34)c12                 6.86
1  COc1cc2c(cc1-c1c(C)noc1C)[nH]c1nc(C)nc(-c3cnc4ccccc4c3)c12                 6.87

Assay Bromodomain-containing protein 4 (Homo sapiens, UniProt O60885), sample COc1cc2c(cc1-c1c(C)noc1C)[nH]c1ncnc(-c3c(C4CC4)n[nH]c3C)c12 , pKi read: 8.15

----------
- experimentalSystem: Histone acetyltransferase p300 (Homo sapiens)
- Sequence (Q09472 whole entry, the tested form may be a part): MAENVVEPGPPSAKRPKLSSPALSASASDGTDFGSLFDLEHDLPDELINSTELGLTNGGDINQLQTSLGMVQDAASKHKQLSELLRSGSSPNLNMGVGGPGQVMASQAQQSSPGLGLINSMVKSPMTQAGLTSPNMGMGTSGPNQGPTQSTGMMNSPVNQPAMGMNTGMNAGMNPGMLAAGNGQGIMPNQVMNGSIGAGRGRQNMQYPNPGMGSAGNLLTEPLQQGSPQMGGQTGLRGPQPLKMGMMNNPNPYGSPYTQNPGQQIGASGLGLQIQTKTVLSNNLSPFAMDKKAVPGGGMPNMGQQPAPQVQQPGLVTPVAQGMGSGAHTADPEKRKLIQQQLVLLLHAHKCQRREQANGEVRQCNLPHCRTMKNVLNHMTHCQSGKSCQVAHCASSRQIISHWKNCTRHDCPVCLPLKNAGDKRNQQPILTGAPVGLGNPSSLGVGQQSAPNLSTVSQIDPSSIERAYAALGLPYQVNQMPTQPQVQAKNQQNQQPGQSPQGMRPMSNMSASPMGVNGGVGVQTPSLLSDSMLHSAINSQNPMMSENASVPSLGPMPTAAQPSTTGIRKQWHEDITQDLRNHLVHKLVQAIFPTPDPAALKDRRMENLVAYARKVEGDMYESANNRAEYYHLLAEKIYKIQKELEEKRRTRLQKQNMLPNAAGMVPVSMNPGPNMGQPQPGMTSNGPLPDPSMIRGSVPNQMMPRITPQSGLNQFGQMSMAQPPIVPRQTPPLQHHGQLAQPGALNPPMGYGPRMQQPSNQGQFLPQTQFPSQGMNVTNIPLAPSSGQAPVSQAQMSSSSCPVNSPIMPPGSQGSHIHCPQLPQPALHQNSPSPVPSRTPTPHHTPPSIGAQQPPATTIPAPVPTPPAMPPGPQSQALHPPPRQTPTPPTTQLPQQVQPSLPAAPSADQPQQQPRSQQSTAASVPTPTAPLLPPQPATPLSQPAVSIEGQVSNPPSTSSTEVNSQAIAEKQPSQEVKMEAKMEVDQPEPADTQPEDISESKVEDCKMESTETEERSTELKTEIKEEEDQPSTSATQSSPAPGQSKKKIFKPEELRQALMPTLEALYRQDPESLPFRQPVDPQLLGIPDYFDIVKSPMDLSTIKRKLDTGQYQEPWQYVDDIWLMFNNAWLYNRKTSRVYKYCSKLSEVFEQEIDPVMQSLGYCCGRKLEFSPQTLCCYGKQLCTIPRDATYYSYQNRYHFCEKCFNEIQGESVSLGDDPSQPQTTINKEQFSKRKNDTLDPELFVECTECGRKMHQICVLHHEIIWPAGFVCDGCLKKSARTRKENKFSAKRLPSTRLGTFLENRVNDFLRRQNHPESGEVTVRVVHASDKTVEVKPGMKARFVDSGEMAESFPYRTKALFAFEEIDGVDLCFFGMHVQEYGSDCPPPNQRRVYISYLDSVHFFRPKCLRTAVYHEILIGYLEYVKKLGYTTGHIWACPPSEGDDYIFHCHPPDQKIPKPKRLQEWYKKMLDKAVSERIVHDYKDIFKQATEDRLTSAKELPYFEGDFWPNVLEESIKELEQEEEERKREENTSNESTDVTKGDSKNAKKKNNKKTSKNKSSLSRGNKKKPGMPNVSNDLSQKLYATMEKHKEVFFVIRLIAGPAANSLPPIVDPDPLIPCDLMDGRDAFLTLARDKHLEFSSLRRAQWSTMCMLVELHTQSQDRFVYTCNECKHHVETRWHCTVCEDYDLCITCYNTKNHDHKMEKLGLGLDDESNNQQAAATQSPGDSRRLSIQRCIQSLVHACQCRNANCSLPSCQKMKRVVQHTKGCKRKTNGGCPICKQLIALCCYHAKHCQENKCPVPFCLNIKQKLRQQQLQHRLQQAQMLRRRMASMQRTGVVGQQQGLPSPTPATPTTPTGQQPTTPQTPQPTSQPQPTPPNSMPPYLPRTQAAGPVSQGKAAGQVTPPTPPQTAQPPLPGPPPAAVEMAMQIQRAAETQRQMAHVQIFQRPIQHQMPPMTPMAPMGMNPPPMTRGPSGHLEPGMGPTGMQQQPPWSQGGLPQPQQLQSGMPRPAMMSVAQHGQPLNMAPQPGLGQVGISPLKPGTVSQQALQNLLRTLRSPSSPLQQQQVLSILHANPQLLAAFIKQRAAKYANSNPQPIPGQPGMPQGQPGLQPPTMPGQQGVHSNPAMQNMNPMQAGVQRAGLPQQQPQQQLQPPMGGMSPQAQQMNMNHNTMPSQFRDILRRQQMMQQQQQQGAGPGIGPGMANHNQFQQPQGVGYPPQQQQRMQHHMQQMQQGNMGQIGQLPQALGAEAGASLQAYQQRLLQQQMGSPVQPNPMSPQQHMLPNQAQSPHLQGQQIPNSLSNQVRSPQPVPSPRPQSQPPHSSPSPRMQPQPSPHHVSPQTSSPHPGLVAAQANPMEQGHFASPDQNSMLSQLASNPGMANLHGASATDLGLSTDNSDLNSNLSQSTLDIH
- testDetails: Binding affinity to human partial length EP300 (A1040 to G1161 residues) expressed in bacterial expression system by BROMOscan assay
reportedEndpoint: pKd
Just so you know, pKd here is -log10 of the concentration in molar units; reply with that number alone.

Noted for COc1cc2c(cc1-c1c(C)noc1C)[nH]c1nc(C)nc(-c3ccnc4ccccc34)c12 : its pKd reads 6.26

----------
- experimentalSystem: Bromodomain-containing protein 4 (Homo sapiens)
- testDetails: Inhibition of FAM-labeled ZBA248 binding to recombinant human N-terminal His6-tagged BRD4 bromodomain 1 (44 to 168 residues) expressed in Rosetta2 DE3 cells after 30 mins by Flourescence polarization assay
- Assay type: biochemical
reportedEndpoint: pIC50
Just so you know, pIC50 here is -log10 of the concentration in molar units; reply with that number alone.

Example entries begin here.
>>> print(df.to_string())
                             moleculesmiles  quantitativereadout
0  COc1cc2c(cc1-c1c(C)noc1C)[nH]c1ncnc(-n3ccnc3)c12                 5.84
1  COc1cc2c(cc1-c1c(C)noc1C)[nH]c1ncnc(Cl)c12                 5.95
2  COc1cc2c(cc1-c1c(C)noc1C)[nH]c1ncnc(-c3c(C)[nH]c4cnccc34)c12                 7.97
3  COc1cc2c(cc1-c1c(C)noc1C)[nH]c1ncnc(-c3c[nH]c4cnccc34)c12                 7.94

Assay Bromodomain-containing protein 4 (Homo sapiens), sample COc1cc2c(cc1-c1c(C)noc1C)[nH]c1ncnc(-c3cc[nH]c3)c12 , pIC50 read: 6.78

----------
Listed below: pIC50 values for each entry.
- experimentalSystem: Bromodomain-containing protein 4 (Homo sapiens, UniProt O60885)
- testDetails: Inhibition of FAM-labeled ZBA248 binding to recombinant human N-terminal His6-tagged BRD4 bromodomain 1 (44 to 168 residues) expressed in Rosetta2 DE3 cells after 30 mins by Flourescence polarization assay
- Format: biochemical
Just so you know, pIC50 here is -log10 of the concentration in molar units; reply with that number alone.

Example entries begin here.
>>> df
                             moleculesmiles                        experimentalsystem  quantitativereadout
0  COc1cc2c(cc1-c1c(C)noc1C)[nH]c1ncnc(-c3c[nH]c4ccccc34)c12  Bromodomain-containing protein 4 (Homo sapiens, UniProt O60885)                 7.69
1  COc1cc2c(cc1-c1c(C)noc1C)[nH]c1nc(C)nc(-c3cncc4ccccc34)c12  Bromodomain-containing protein 4 (Homo sapiens, UniProt O60885)                 7.45
2  COc1cc2c(cc1-c1c(C)noc1C)[nH]c1ncnc(-c3c(C)n[nH]c3C)c12  Bromodomain-containing protein 4 (Homo sapiens, UniProt O60885)                 7.29
3  COc1cc2c(cc1-c1c(C)noc1C)[nH]c1nc(C)nc(-c3cccc4cccnc34)c12  Bromodomain-containing protein 4 (Homo sapiens, UniProt O60885)                 6.39
4  COc1cc2c(cc1-c1c(C)noc1C)[nH]c1ncnc(-c3cnn4ccccc34)c12  Bromodomain-containing protein 4 (Homo sapiens, UniProt O60885)                 7.31

Noted for COc1cc2c(cc1-c1c(C)noc1C)[nH]c1ncnc(-c3c(C4CC4)n[nH]c3C)c12 : its pIC50 reads 7.62

Noted for COc1cc2c(cc1-c1c(C)noc1C)[nH]c1ncnc(-n3cnc4ccccc43)c12 : its pIC50 reads 7.53

Noted for COc1cc(-c2nc(C)nc3[nH]c4cc(-c5c(C)noc5C)c(OC)cc4c23)c2ccccc2n1 : its pIC50 reads 7.14

----------
Listed below: IC50 values for each entry.
- experimentalSystem: Bromodomain-containing protein 4 (Homo sapiens)
- testDetails: Inhibition of FAM-labeled ZBA248 binding to recombinant human N-terminal His6-tagged BRD4 bromodomain 2 (333 to 460 residues) expressed in Rosetta2 DE3 cells after 30 mins by Flourescence polarization assay
- Assay type: biochemical
Value expressed in nM; do not type the unit.

Example entries begin here.
                             moleculesmiles  reportedendpoint  quantitativereadout
0  COc1cc2c(cc1-c1c(C)noc1C)[nH]c1ncnc(-c3cn[nH]c3)c12              IC50                  199
1  COc1cc2c(cc1-c1c(C)noc1C)[nH]c1ncnc(-n3cnc4ccccc43)c12              IC50                  9.4

Okay, now this compound:
Noted for COc1cc2c(cc1-c1c(C)noc1C)[nH]c1ncnc(-c3c(C)oc4ccccc34)c12 : its IC50 reads 12.2

----------
- testDetails: Cmax in SCID mouse at 25 mg/kg, po by LC/MS method
- Assay type: ADME, organism-based
- Design: dose 25 mg/kg, route oral
- measurementSetup: in vivo
reportedEndpoint: Cmax

Noted for COc1cc2c(cc1-c1c(C)noc1C)[nH]c1nc(C)nc(-c3ccnc4ccccc34)c12 : its Cmax reads 983 ng/mL

----------
Listed below: pIC50 values for each entry.
- experimentalSystem: Bromodomain-containing protein 4 (Homo sapiens)
- testDetails: Inhibition of FAM-labeled ZBA248 binding to recombinant human N-terminal His6-tagged BRD4 bromodomain 2 (333 to 460 residues) expressed in Rosetta2 DE3 cells after 30 mins by Flourescence polarization assay
- Type: biochemical
Just so you know, pIC50 here is -log10 of the concentration in molar units; reply with that number alone.

Example entries begin here.
In [3]: df
Out[3]:
                             moleculesmiles  quantitativereadout
0  COc1cc2c(cc1-c1c(C)noc1C)[nH]c1ncnc(-n3ccnc3)c12                 5.94
1  COc1cc2c(cc1-c1c(C)noc1C)[nH]c1ncnc(-c3cnn4ccccc34)c12                 7.58
2  COc1cc(-c2nc(C)nc3[nH]c4cc(-c5c(C)noc5C)c(OC)cc4c23)c2ccccc2n1                 7.84
3  COc1cc2c(cc1-c1c(C)noc1C)[nH]c1nc(C)nc(-c3ccnc4ccccc34)c12                 8.14
4  COc1cc2c(cc1-c1c(C)noc1C)[nH]c1ncnc(-c3c(C4CC4)n[nH]c3C)c12                 7.93
5  COc1cc2c(cc1-c1c(C)noc1C)[nH]c1nc(C)nc(-c3cnc4ccccc4c3)c12                 6.89
6  COc1cc2c(cc1-c1c(C)noc1C)[nH]c1ncnc(-c3cnoc3)c12                 5.73
7  COc1cc2c(cc1-c1c(C)noc1C)[nH]c1nc(C)nc(-c3c(C)[nH]c4ccccc34)c12                 8.72

Okay, now this compound:
Noted for COc1cc2c(cc1-c1c(C)noc1C)[nH]c1ncnc(Cl)c12 : its pIC50 reads 5.75
